Data provenance: the supplement of paper PMC8728848

tgt: Glc(a1-6)Glc(a1-6)Glc(a1-6)Glc
test protocol: glycan array binding signal (z-score within array); higher = stronger binding
reported conditions: glycan notation: IUPAC condensed, linker removed
The full list was thinned out, with the strongest signals kept by preference.
Quick reference for glycan array binding signal (z-score) among some binders
// print number alone

Consider the following illustrative entries.
binder	glycan array binding signal (z-score)
Gal 8 (Homo sapiens), O00214_1 (protein) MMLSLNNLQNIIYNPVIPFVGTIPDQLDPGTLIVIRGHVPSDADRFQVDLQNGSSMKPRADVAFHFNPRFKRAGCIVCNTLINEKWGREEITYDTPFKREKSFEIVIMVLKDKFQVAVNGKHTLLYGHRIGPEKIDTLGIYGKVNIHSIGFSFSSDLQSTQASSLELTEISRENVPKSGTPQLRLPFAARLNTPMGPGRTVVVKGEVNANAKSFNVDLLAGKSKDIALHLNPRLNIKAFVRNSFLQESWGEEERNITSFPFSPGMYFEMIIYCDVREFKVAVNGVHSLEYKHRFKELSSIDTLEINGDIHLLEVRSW	-0.23
LSL-150 (Laetiporus sulphureus), Q7Z8V1 (protein) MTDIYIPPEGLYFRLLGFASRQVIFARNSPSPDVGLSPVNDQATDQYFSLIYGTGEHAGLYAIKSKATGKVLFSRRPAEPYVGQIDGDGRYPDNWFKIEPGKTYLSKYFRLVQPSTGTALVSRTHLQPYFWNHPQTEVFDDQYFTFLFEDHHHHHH	-0.207

Okay, now this binder:
Lookup: Any idea what glycan array binding signal (z-score) was measured for Malectin (Xenopus laevis), Q6INX3 (protein) SGLADKVIWAVNAGGESHVDVHGIHYRKDPLEGRVGRASDYGMKLPILRSNPEDQVLYQTERYNEDSFGYDIPIKEEGEYVLVLKFAEVYFAQSQQKVFDVRVNGHTVVKDLDIFDRVGHSTAHDEIIPISIKKGKLSVQGEVSTFTGKLSVEFVKGYYDNPKVCALFIMKGTADDVPMLQPHPGLE ?
Found: 0.133
